Catalogue of Population Healthy Nuclei (%) values
Tested on: HEK-293T
Experiment: Multiplex assay against HEK293T
Assay type: toxicity, cell-based
Details: human, 48 h, 10 µM, compound concentration 10 uM, replicate 1
READOUT TYPE: Population Healthy Nuclei (%)

compound="O=C(Cc1ccc(-c2ccc(OCCN3CCOCC3)cc2)cn1)NCc1ccccc1 [TIRBANIBULIN]" measured=13%
compound="CCOC(=O)c1c(C)[nH]c2ccc3c(c12)CN1CCc2cc(OC)ccc2C1O3 (stereo not given)" measured=22%
compound="COCC(=O)NC/C=C/c1ccc2ncnc(Nc3ccc(Oc4ccc(C)nc4)c(C)c3)c2c1 [CP-724714]" measured=10%
compound=Cc1ccc(C(=O)Nc2cccc(C(F)(F)F)c2)cc1Nc1nc(-c2cccnc2)nc2c1cnn2C measured=15%
compound=O=C(Nc1ccc(-c2ccnc(Nc3ccc(N4CCOCC4)cc3)n2)cc1)[C@@H]1CCCN1 measured=48%
